# measurement_description: Stability of ratio of the mixture of desloratadine polymorphic forms on storage (XRPD)
# Format: physicochemical
# condition_set: 40° C., 75% RH; 2 weeks
# Form 1 (%) per record follows
A number alone suffices; assume %.

>  <molecule>
Clc1ccc2c(c1)CCc1cccnc1C2=C1CCNCC1 [Example 1 of Stability Tests, desloratadine]

>  <Form 1 (%)>
43

$$$$
>  <molecule>
Clc1ccc2c(c1)CCc1cccnc1C2=C1CCNCC1 [Example 2 of Stability Tests, desloratadine]

>  <Form 1 (%)>
64

$$$$
>  <molecule>
Clc1ccc2c(c1)CCc1cccnc1C2=C1CCNCC1 [Example 3 of Stability Tests, desloratadine]

>  <Form 1 (%)>
81

$$$$

We now examine a further molecule.
**Q:** Could you tell me which Form 1 (%) is on file for Clc1ccc2c(c1)CCc1cccnc1C2=C1CCNCC1 [Example 4 of Stability Tests, desloratadine] ?
**A:** 82

Recorded values, source patent US20060223841A1.
